- assayRemarks: Half life in CD1 mouse at 150 mg/kg, ip measured during 15 mins to 24 hrs by LC-MS/MS analysis
- Format: ADME, organism-based
- conditionsUsed: in vivo
observedProperty: half-life (h)
Response body: numeric value in h, unit text excluded.

I have this compound here, `O=C1NCc2ncc(-c3ccc(-c4cncc(NS(=O)(=O)c5ccc(F)cc5F)c4)s3)cc21` , and I need its recorded half-life.
5.5

* * *

- studySystem: Perforin-1 (Homo sapiens)
- assayRemarks: Inhibition of perforin in human KHYG-1 cells pre-treated with compound for 20 mins assessed as reduction in KHYG-1 cells-mediated cell lysis of human K562 cells at 20 uM measured after 4 hrs by 51Cr release based gamma counting method
Calls of active or inactive are those of the source. The rule behind the calls is not given here.
observedProperty: inhibition

Solved cases below.
[
  {
    "compound": "O=C1c2ccc(-c3ccc(-c4cncc(NS(=O)(=O)c5ccc(F)cc5F)c4)s3)cc2CN1CCN1CCCCC1",
    "testResult": "inactive"
  },
  {
    "compound": "O=C1NCc2ncc(-c3ccc(-c4cncc(NS(=O)(=O)c5ccc(F)cc5F)c4)s3)cc21",
    "testResult": "40%"
  },
  {
    "compound": "CN1CCN(CCN2Cc3cc(-c4ccc(-c5cncc(NS(=O)(=O)c6ccc(F)cc6F)c5)s4)ccc3C2=O)CC1",
    "testResult": "inactive"
  },
  {
    "compound": "O=C1c2ccc(-c3ccc(-c4cncc(NS(=O)(=O)c5ccc(F)cc5F)c4)s3)cc2CN1CC(O)CO (centres undefined)",
    "testResult": "inactive"
  },
  {
    "compound": "CN(C)CCN1Cc2cc(-c3ccc(-c4cncc(NS(=O)(=O)c5ccc(F)cc5F)c4)s3)ccc2C1=O",
    "testResult": "inactive"
  },
  {
    "compound": "O=C1c2ccc(-c3ccc(-c4cncc(NS(=O)(=O)c5ccc(F)cc5F)c4)s3)cc2CN1CCN1CCCC1",
    "testResult": "inactive"
  }
]

I have this compound here, `CN1Cc2cc(-c3ccc(-c4cncc(NS(=O)(=O)c5cccc(C(F)(F)F)c5)c4)s3)cnc2C1=O` , and I need its recorded inhibition.
40%

Likewise for `O=C1c2ccc(-c3ccc(-c4cncc(NS(=O)(=O)c5ccc(F)cc5F)c4)s3)cc2CN1CCN1CCOCC1` ?
inactive

Likewise for `O=C1c2ccc(-c3ccc(-c4cncc(NS(=O)(=O)c5ccc(F)cc5F)c4)s3)cc2CN1CCCO` ?
inactive
